Target: human mGlu5 receptor (Homo sapiens, UniProt P41594)
Sequence (P41594 21-1212): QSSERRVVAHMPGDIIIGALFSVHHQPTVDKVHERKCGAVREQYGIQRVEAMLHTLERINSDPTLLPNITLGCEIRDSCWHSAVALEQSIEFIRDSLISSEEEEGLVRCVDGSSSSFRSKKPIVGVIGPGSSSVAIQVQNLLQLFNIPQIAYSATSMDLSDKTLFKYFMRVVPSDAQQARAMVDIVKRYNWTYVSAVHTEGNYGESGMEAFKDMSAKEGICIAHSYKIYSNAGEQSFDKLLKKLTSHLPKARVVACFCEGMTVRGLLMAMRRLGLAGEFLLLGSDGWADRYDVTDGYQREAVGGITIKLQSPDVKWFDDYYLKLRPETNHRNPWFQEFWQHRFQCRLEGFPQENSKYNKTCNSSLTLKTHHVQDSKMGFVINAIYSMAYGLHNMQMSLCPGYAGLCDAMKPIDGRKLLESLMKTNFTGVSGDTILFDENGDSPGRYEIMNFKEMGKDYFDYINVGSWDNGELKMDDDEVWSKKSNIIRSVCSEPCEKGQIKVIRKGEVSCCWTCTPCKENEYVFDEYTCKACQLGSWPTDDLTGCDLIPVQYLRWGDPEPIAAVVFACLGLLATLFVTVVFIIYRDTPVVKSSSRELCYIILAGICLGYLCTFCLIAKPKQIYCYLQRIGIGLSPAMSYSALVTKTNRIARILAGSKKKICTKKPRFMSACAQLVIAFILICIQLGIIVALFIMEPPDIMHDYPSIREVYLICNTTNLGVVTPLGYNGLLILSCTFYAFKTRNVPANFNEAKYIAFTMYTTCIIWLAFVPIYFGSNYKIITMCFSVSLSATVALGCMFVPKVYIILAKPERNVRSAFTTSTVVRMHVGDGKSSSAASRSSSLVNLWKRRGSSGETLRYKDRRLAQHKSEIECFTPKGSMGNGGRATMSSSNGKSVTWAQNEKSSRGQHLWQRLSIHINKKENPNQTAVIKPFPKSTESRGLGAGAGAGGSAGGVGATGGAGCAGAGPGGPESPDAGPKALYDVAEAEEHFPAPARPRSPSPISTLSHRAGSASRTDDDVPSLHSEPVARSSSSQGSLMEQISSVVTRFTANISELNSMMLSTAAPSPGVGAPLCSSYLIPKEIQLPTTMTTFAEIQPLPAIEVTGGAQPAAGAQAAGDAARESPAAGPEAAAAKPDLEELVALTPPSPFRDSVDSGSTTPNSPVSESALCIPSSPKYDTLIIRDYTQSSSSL
Experiment: Functional in vitro activity at human mGlu5 receptor (FLIPR calcium, potentiator mode)
Conditions: AV-12 cells expressing human mGlu5, glutamate EC10, relative EC50
pEC50: −log10 of the molar value.
recorded endpoint: pEC50

a: CC(C)(C)c1nnc2n1CC[C@H](c1nc(-c3ccc(F)cc3)no1)C2 (single isomer, unassigned) [Example 11]
b: CC(C)(C)c1nnc2n1CCC(c1nc(-c3ccc(F)cc3)no1)C2 (racemic) [Example 1]
### Prompt From the recorded data, which exceeds the other in pEC50: a or b ? Respond with the label that goes with your answer.
### Response a
(a: 7.44, b: 6.92)
